Data provenance is ChEMBL document CHEMBL2029248.

assay: AUC (0 to 6 hrs) in rat at 10 mg/kg, po; format: ADME, organism-based; set-up: time < 6 hr, dose 10 mg/kg, route oral; conditions: plasma
measurementName: AUC(0-t) at 6 h (ng·h/mL)

Query block: Respond only with AUC(0-t) at 6 h recorded for `Cc1nnc(-c2cccc(-c3nnc(N4CCC(N5CCCCC5)CC4)s3)c2)o1`
Result block: 2500

Query block: Respond only with AUC(0-t) at 6 h recorded for `O=c1ccoc2ccc(-c3nnc(N4CCC(N5CCCCC5)CC4)s3)cc12`
Result block: 1300

Query block: Respond only with AUC(0-t) at 6 h recorded for `O=c1ccnc2c(-c3nnc(N4CCC(N5CCCCC5)CC4)s3)cccn12`
Result block: 840

Query block: Respond only with AUC(0-t) at 6 h recorded for `c1cnc2c(-c3nnc(N4CCC(N5CCCCC5)CC4)s3)cccc2c1`
Result block: 530

Query block: Respond only with AUC(0-t) at 6 h recorded for `Cc1cc(=O)c2cc(-c3nnc(N4CCC(N5CCCCC5)CC4)s3)ccc2o1`
Result block: 8000

A: O=c1ccnc2ccc(-c3nnc(N4CCC(N5CCCCC5)CC4)s3)cn12
B: Cc1nnc2ccc(-c3nnc(N4CCC(N5CCCCC5)CC4)s3)cn12
Query block: Field: lower AUC(0-t) at 6 h | Options: A / B Respond with the label that goes with your answer.
Result block: B

---

test system: Mus musculus; assay: Ex-vivo receptor occupancy in ICR mouse cortex assessed as displacement of [3H]N-alpha-methylhistamine from histamine H3 receptor at 10 mg/kg, po after 4 hrs post dose by scintillation counting; type: functional
Listed molecules paired with reported Occ
Express the result in % but write the number alone.

Examples from the recorded data:
Query block: Respond only with Occ recorded for `O=c1cccnn1-c1cccc(-c2nnc(N3CCC(N4CCCCC4)CC3)s2)c1`
Result block: 25

Query block: Respond only with Occ recorded for `Cc1nnc(-c2cccc(-c3nnc(N4CCC(N5CCCCC5)CC4)s3)c2)o1`
Result block: 46

Query block: Respond only with Occ recorded for `O=c1ccc2c(-c3nnc(N4CCC(N5CCCCC5)CC4)s3)cccc2[nH]1`
Result block: 6

Query block: Respond only with Occ recorded for `c1cc(-c2nnc(N3CCC(N4CCCCC4)CC3)s2)n2nccc2c1`
Result block: 22

Query block: Respond only with Occ recorded for `O=c1ccnc2c(-c3nnc(N4CCC(N5CCCCC5)CC4)s3)cccn12`
Result block: 94

Query block: Respond only with Occ recorded for `Cc1nnc2ccc(-c3nnc(N4CCC(N5CCCCC5)CC4)s3)cn12`
Result block: 34

Others:
Query block: Respond only with Occ recorded for `O=c1ccnc2ccc(-c3nnc(N4CCC(N5CCCCC5)CC4)s3)cn12`
Result block: 69

Query block: Respond only with Occ recorded for `c1cnc2c(-c3nnc(N4CCC(N5CCCCC5)CC4)s3)cccc2c1`
Result block: 77

Query block: Respond only with Occ recorded for `O=c1ccc2ccc(-c3nnc(N4CCC(N5CCCCC5)CC4)s3)cc2[nH]1`
Result block: 2

Query block: Respond only with Occ recorded for `O=C(c1cccc(-c2nnc(N3CCC(N4CCCCC4)CC3)s2)n1)N1CCC1`
Result block: 6

Query block: Respond only with Occ recorded for `O=c1ccc2cc(-c3nnc(N4CCC(N5CCCCC5)CC4)s3)ccc2[nH]1`
Result block: 25

Query block: Respond only with Occ recorded for `O=c1ccoc2ccc(-c3nnc(N4CCC(N5CCCCC5)CC4)s3)cc12`
Result block: 84

Query block: Respond only with Occ recorded for `c1cc(-c2nnc(N3CCC(N4CCCCC4)CC3)s2)c2ccncc2c1`
Result block: 19
